Tested on: HCC1187
Test: Cytotoxicity in vitro (CellTiter-Glo viability), HCC1187
Settings: read-out: EC50 (nM), cytotoxicity in vitro; HCC1187 (TNBC), 72 hours
Procedure: ROR1 binding by these conjugates was tested in cell culture to define the potency of various linker-cytotoxic agent combinations. […] Cells were cultured in log phase growth and distributed into 96-well plates. […] After treatment, cells were incubated with an equal volume of CellTiter-Glo® reagent (Promega Inc.) for 15 minutes at room temperature and viability was determined by a luminometer. […]
Measure Name: EC50 (nM)

molecule="COc1cc2cc(c1Cl)N(C)C(=O)C[C@H](OC(=O)[C@H](C)N(C)C(=O)CCS)[C@]1(C)O[C@H]1[C@H](C)[C@@H]1C[C@@](O)(NC(=O)O1)[C@H](OC)/C=C/C=C(\\C)C2 [DM1]" target=HCC1187 measure_name=EC50 numeric_value=3.9

###

Test system: ES2
Experiment: Cytotoxicity in vitro (CellTiter-Glo viability), ES2
Format: cell-based, human
Settings: ES2 (Ovarian), 72 hours
Non-standard residues stand in square brackets, D forms with d. Residues, ends and D or L forms follow the SMILES beside them. *: point of attachment. Dolaproine = CO[C@@H]([C@@H]1CCCN1)[C@@H](C)C(=O)O; Dil = CC[C@H](C)[C@H](NC)[C@@H](CC(=O)O)OC; X1 = C[C@@H](N*)[C@@H](O)c1ccccc1; NMeV = CN[C@H](C(=O)O)C(C)C
Measure Name: EC50 (nM)

molecule="CC[C@H](C)[C@@H]([C@@H](CC(=O)N1CCC[C@H]1[C@H](OC)[C@@H](C)C(=O)N[C@H](C)[C@@H](O)c1ccccc1)OC)N(C)C(=O)[C@@H](NC(=O)[C@@H](NC)C(C)C)C(C)C [MMAE, monomethyl auristatin E, reference compound] (H-[NMeV]V[Dil][Dolaproine]-X1)" target=ES2 measure_name=EC50 scale_unit=nM numeric_value=1.1

###

Tested on: Hep-G2
Assay type: cell-based, human
Conditions: Hep-G2 (HCC), 72 hours; read-out: EC50 (nM), cytotoxicity in vitro
Non-standard residues stand in square brackets, D forms with d. Residues, ends and D or L forms follow the SMILES beside them. *: point of attachment. Dolaproine = CO[C@@H]([C@@H]1CCCN1)[C@@H](C)C(=O)O; Dil = CC[C@H](C)[C@H](NC)[C@@H](CC(=O)O)OC; X1 = C[C@@H](N*)[C@@H](O)c1ccccc1; NMeV = CN[C@H](C(=O)O)C(C)C
Measure Name: EC50

molecule="CC[C@H](C)[C@@H]([C@@H](CC(=O)N1CCC[C@H]1[C@H](OC)[C@@H](C)C(=O)N[C@H](C)[C@@H](O)c1ccccc1)OC)N(C)C(=O)[C@@H](NC(=O)[C@@H](NC)C(C)C)C(C)C [MMAE, monomethyl auristatin E, reference compound] (H-[NMeV]V[Dil][Dolaproine]-X1)" target=Hep-G2 result="> 1000 nM"

###

System: FaDu
Assay type: cell-based, human
Details: FaDu (HN), 72 hours; read-out: EC50 (nM), cytotoxicity in vitro
Non-standard residues stand in square brackets, D forms with d. Residues, ends and D or L forms follow the SMILES beside them. *: point of attachment. Dolaproine = CO[C@@H]([C@@H]1CCCN1)[C@@H](C)C(=O)O; Dil = CC[C@H](C)[C@H](NC)[C@@H](CC(=O)O)OC; X1 = C[C@@H](N*)[C@@H](O)c1ccccc1; NMeV = CN[C@H](C(=O)O)C(C)C
Measure Name: EC50

molecule="CC[C@H](C)[C@@H]([C@@H](CC(=O)N1CCC[C@H]1[C@H](OC)[C@@H](C)C(=O)N[C@H](C)[C@@H](O)c1ccccc1)OC)N(C)C(=O)[C@@H](NC(=O)[C@@H](NC)C(C)C)C(C)C [MMAE, monomethyl auristatin E, reference compound] (H-[NMeV]V[Dil][Dolaproine]-X1)" target=FaDu measure_name=EC50 result="> 1000 nM"

###

System: As-PC1
Assay: Cytotoxicity in vitro (CellTiter-Glo viability), As-PC1
Format: cell-based, human
Conditions: As-PC1 (Pancreatic), 72 hours
Non-standard residues stand in square brackets, D forms with d. Residues, ends and D or L forms follow the SMILES beside them. *: point of attachment. Dolaproine = CO[C@@H]([C@@H]1CCCN1)[C@@H](C)C(=O)O; Dil = CC[C@H](C)[C@H](NC)[C@@H](CC(=O)O)OC; X1 = C[C@@H](N*)[C@@H](O)c1ccccc1; NMeV = CN[C@H](C(=O)O)C(C)C
Measure Name: EC50

molecule="CC[C@H](C)[C@@H]([C@@H](CC(=O)N1CCC[C@H]1[C@H](OC)[C@@H](C)C(=O)N[C@H](C)[C@@H](O)c1ccccc1)OC)N(C)C(=O)[C@@H](NC(=O)[C@@H](NC)C(C)C)C(C)C [MMAE, monomethyl auristatin E, reference compound] (H-[NMeV]V[Dil][Dolaproine]-X1)" measure_name=EC50 result="0.04 nM"

###

System: Bx-PC3
Test: Cytotoxicity in vitro (CellTiter-Glo viability), Bx-PC3
Type: cell-based, human
Details: Bx-PC3 (Pancreatic), 72 hours
Non-standard residues stand in square brackets, D forms with d. Residues, ends and D or L forms follow the SMILES beside them. *: point of attachment. Dolaproine = CO[C@@H]([C@@H]1CCCN1)[C@@H](C)C(=O)O; Dil = CC[C@H](C)[C@H](NC)[C@@H](CC(=O)O)OC; X1 = C[C@@H](N*)[C@@H](O)c1ccccc1; NMeV = CN[C@H](C(=O)O)C(C)C
Measure Name: EC50 (nM)

compound="CC[C@H](C)[C@@H]([C@@H](CC(=O)N1CCC[C@H]1[C@H](OC)[C@@H](C)C(=O)N[C@H](C)[C@@H](O)c1ccccc1)OC)N(C)C(=O)[C@@H](NC(=O)[C@@H](NC)C(C)C)C(C)C [MMAE, monomethyl auristatin E, reference compound] (H-[NMeV]V[Dil][Dolaproine]-X1)" scale_unit=nM numeric_value=0.04

###

System: A2780
Experiment: Cytotoxicity in vitro (CellTiter-Glo viability), A2780
Format: cell-based, human
Settings: A2780 (Ovarian), 72 hours
Non-standard residues stand in square brackets, D forms with d. Residues, ends and D or L forms follow the SMILES beside them. *: point of attachment. Dolaproine = CO[C@@H]([C@@H]1CCCN1)[C@@H](C)C(=O)O; Dil = CC[C@H](C)[C@H](NC)[C@@H](CC(=O)O)OC; X1 = C[C@@H](N*)[C@@H](O)c1ccccc1; NMeV = CN[C@H](C(=O)O)C(C)C
Measure Name: EC50

compound="CC[C@H](C)[C@@H]([C@@H](CC(=O)N1CCC[C@H]1[C@H](OC)[C@@H](C)C(=O)N[C@H](C)[C@@H](O)c1ccccc1)OC)N(C)C(=O)[C@@H](NC(=O)[C@@H](NC)C(C)C)C(C)C [MMAE, monomethyl auristatin E, reference compound] (H-[NMeV]V[Dil][Dolaproine]-X1)" result="0.08 nM"

###

Test system: HCC1937
Assay: Cytotoxicity in vitro (CellTiter-Glo viability), HCC1937
Assay type: cell-based, human
Settings: HCC1937 (TNBC), 72 hours
Non-standard residues stand in square brackets, D forms with d. Residues, ends and D or L forms follow the SMILES beside them. *: point of attachment. Dolaproine = CO[C@@H]([C@@H]1CCCN1)[C@@H](C)C(=O)O; Dil = CC[C@H](C)[C@H](NC)[C@@H](CC(=O)O)OC; X1 = C[C@@H](N*)[C@@H](O)c1ccccc1; NMeV = CN[C@H](C(=O)O)C(C)C
Measure Name: EC50

compound="CC[C@H](C)[C@@H]([C@@H](CC(=O)N1CCC[C@H]1[C@H](OC)[C@@H](C)C(=O)N[C@H](C)[C@@H](O)c1ccccc1)OC)N(C)C(=O)[C@@H](NC(=O)[C@@H](NC)C(C)C)C(C)C [MMAE, monomethyl auristatin E, reference compound] (H-[NMeV]V[Dil][Dolaproine]-X1)" result="> 1000 nM"

###

Test system: TOV112D
Experiment: Cytotoxicity in vitro (CellTiter-Glo viability), TOV112D
Assay type: cell-based, human
Conditions: TOV112D (Ovarian), 72 hours
Non-standard residues stand in square brackets, D forms with d. Residues, ends and D or L forms follow the SMILES beside them. *: point of attachment. Dolaproine = CO[C@@H]([C@@H]1CCCN1)[C@@H](C)C(=O)O; Dil = CC[C@H](C)[C@H](NC)[C@@H](CC(=O)O)OC; X1 = C[C@@H](N*)[C@@H](O)c1ccccc1; NMeV = CN[C@H](C(=O)O)C(C)C
Overview of recorded EC50 for various compounds
Measure Name: EC50 (nM)

compound=COc1cc2cc(c1Cl)N(C)C(=O)C[C@H](OC(=O)[C@H](C)N(C)C(=O)CCS)[C@]1(C)O[C@H]1[C@H](C)[C@@H]1C[C@@](O)(NC(=O)O1)[C@H](OC)/C=C/C=C(\C)C2 scale_unit=nM numeric_value=2.4
compound="CC[C@H](C)[C@@H]([C@@H](CC(=O)N1CCC[C@H]1[C@H](OC)[C@@H](C)C(=O)N[C@H](C)[C@@H](O)c1ccccc1)OC)N(C)C(=O)[C@@H](NC(=O)[C@@H](NC)C(C)C)C(C)C [MMAE, monomethyl auristatin E, reference compound] (H-[NMeV]V[Dil][Dolaproine]-X1)" scale_unit=nM numeric_value=0.04

Ref: patent USRE50631E1
